Tested on: Fibroblast
protocolDescription: Incucyte cell viability with human fibroblast; note: filed as whole numbers so only -1 and 0 and 1 occur
Type: toxicity, cell-based
conditionInfo: 24 h, 10 µM, compound concentration 10 uM, replicate number 2, timepoint 24 hours
propertyMeasured: Growth Rate
// no unit string in output, number only

The examples below pair each entry with its known result.
compound	propertyMeasured	measured
Cc1nc(C#Cc2ccnc(Cl)c2)c(C)n1-c1ccc(OC(F)(F)F)cc1	Growth Rate	0
CN(CCOc1ccc(C[C@H](Nc2ccccc2C(=O)c2ccccc2)C(=O)O)cc1)c1ccccn1.O	Growth Rate	0
CO[C@@H]1COCC[C@@H]1N[C@@H]1CC[C@@](C(=O)N2CCc3ncc(C(F)(F)F)cc3C2)(C(C)C)C1	Growth Rate	0
Cc1cc(C)cc(C(=O)N(C)[C@H](Cc2ccc(-c3ccccc3)cc2)C(=O)N[C@@H](Cc2c[nH]c3ccccc23)C(=O)O)c1	Growth Rate	1
Cc1cc2c(cc1N1C(=O)c3cccc4c(CCCO)ccc(c34)C1=O)n(C)c(=O)n2C	Growth Rate	1
CN(C)CCOc1ccc(-c2nc(-c3ccncc3)c(-c3ccc4c(c3)CC/C4=N\O)[nH]2)cc1	Growth Rate	0
CCCc1c(-c2ccc(O)cc2)nn(-c2ccc(O)cc2)c1-c1ccc(O)cc1	Growth Rate	1
C[C@@H]1CCc2ncc(F)cc2[C@H]2CCCN2c2ccn3ncc(c3n2)C(=O)N1	Growth Rate	0

QUERY: Reported Growth Rate for COc1ccc(COc2ccc(Cc3cnc(N)nc3N)cc2OC)cc1 [GW632580X] : what is it?
RESULT: 0

QUERY: Next record, please: CC(C)NCC(O)c1ccc(N)c(C#N)c1 (stereo unspecified)
RESULT: 1

QUERY: Now consider C[C@H]1CCCN1Cc1nc2cc(NC(=O)c3ccc4cnccc4c3)ccc2[nH]1 .
RESULT: 1

---

# reported Population Fragmented Nuclei (%); entries follow
System: HEK-293T
protocolDescription: Multiplex assay against HEK293T
Assay type: toxicity, cell-based
conditionInfo: human, 24 h, 1 µM, compound concentration 1 uM, replicate 2
# output: number + unit

QUERY: Could you tell me which Population Fragmented Nuclei (%) is on file for CNc1oc(-c2cccc3ccccc23)nc1C#N ?
RESULT: 6%

QUERY: And what about the compound CCC(=O)O[C@]1(C(=O)SCF)[C@H](C)C[C@H]2[C@@H]3C[C@H](F)C4=CC(=O)C=C[C@]4(C)[C@@]3(F)[C@@H](O)C[C@@]21C [FLUTICASONE PROPIONATE] ?
RESULT: 3%

QUERY: Same again, this time with Cl.Cl.Nc1ncnc2c1c(-c1cccc(OCc3ccccc3)c1)cn2[C@H]1C[C@@H](CN2CCC2)C1
RESULT: 7%

QUERY: Okay, and COc1ccc(NS(=O)(=O)c2sc3ccc(Cl)cc3c2C)cc1N1CCNCC1.Cl ?
RESULT: 4%

---

The entries below come with measured Growth Rate values attached.
Tested on: Fibroblast
protocolDescription: Incucyte cell viability with human fibroblast; note: filed as whole numbers so only -1 and 0 and 1 occur
Type: toxicity, cell-based
conditionInfo: 18 h, 10 µM, compound concentration 10 uM, replicate number 1, timepoint 18 hours
Give the value as a plain number.

compound	assaySystem	Growth Rate
CN(C(=O)Cc1ccc(Cl)c(Cl)c1)C(CN1CCCC1)c1cccc(OCC(=O)O)c1.Cl (centres undefined)	Fibroblast	0
C[C@H]1CCCN1Cc1nc2cc(NC(=O)c3ccc4cnccc4c3)ccc2[nH]1	Fibroblast	0
CCCCN(CCCC)C(=O)CN1C[C@@H](c2cc(OC)c3c(c2)OCO3)[C@H](C(=O)O)[C@H]1CC(C)(C)CCC [A-545]	Fibroblast	0
CCc1cc2c(c(CC)n1)CCC(=O)N2Cc1ccc(-c2ccccc2-c2nnn[nH]2)cc1.Cl	Fibroblast	0

QUERY: Fill blank: measured Growth Rate of the compound COc1cc2c(NC3CCN(C(C)C)CC3)nc(N3CCC(F)(F)CC3)nc2cc1OCCCN1CCCC1 is ____.
RESULT: 1

QUERY: Another compound to check: CN(C)CCCn1cc(C2=C(c3c[nH]c4ccccc34)C(=O)NC2=O)c2ccccc21 [GF-109203]
RESULT: 0

QUERY: And the next one, CCCc1c(-c2ccc(O)cc2)nn(-c2ccc(O)cc2)c1-c1ccc(O)cc1 [PROPYLPYRAZOLETRIOL] ?
RESULT: 0

QUERY: Proceed to N#Cc1ccccc1OCC(O)CNCCNC(=O)Nc1ccccc1 (centres undefined) [ICI-89406]
RESULT: 0

QUERY: One more compound: COc1ccccc1C(=O)Nc1cc2c(cc1N1CCCC1)n(C)c(=O)n2C
RESULT: 1

This collection of values is drawn from ChEMBL document CHEMBL4689842.
